# Test system: L1210 leukemia ip in BDF1 mice, survival T/C
# Assay notes: NCI In Vivo Anticancer Drug Screen. Data for tumor model L1210 Leukemia (intraperitoneal) in B6D2F1 (BDF1) mice
# Test context: endpoint: mean survival time; dose: 100.0 mg/kg/injection; schedule: Q01DX001 (ip); vehicle: carboxymethylcellulose (CMC); higher = longer survival
Inconclusive results and toxic doses are left out.
Assay endpoint: T/C

query: // Input: O=c1oc2c(CN3CCCCC3)c(O)ccc2c2c1CCCC2 . Output its T/C only.
result: 93 % of control

query: // Input: O=S(=O)([O-])CC[n+]1ccc(-c2ccccc2)o1 . Output its T/C only.
result: 94 % of control

query: // Input: O=C1c2cc([N+](=O)[O-])ccc2-c2cc(Br)cc(Br)c21 . Output its T/C only.
result: 93 % of control

query: // Input: O=C(O)c1cccc(SSc2cccc(C(=O)O)c2)c1 . Output its T/C only.
result: 94 % of control

query: // Input: CNc1ncnc2[nH]ncc12 . Output its T/C only.
result: 88 % of control

query: // Input: CCC[CH2][Ge]([CH2]CCC)([CH2]CCC)[N]1C(=O)c2ccccc2C1=O . Output its T/C only.
result: 96 % of control

query: // Input: O=c1[nH]nnc2c1cnn2-c1ccccc1 . Output its T/C only.
result: 101 % of control

query: // Input: O=C(c1ccsc1)C(O)c1ccccc1 (stereo unspecified) . Output its T/C only.
result: 97 % of control

query: // Input: CCCCCCCCCCCCCCCCS(=O)(=O)N/N=C/c1cc(Cl)ccc1O . Output its T/C only.
result: 94 % of control

query: // Input: NC(=O)/C=C\c1csc2ccccc12 . Output its T/C only.
result: 100 % of control

query: // Input: COc1ccc(OC)c2c1C(=O)c1ccccc1C2=O . Output its T/C only.
result: 108 % of control

query: // Input: Cc1ccc(Cl)c(C2c3ccccc3Cc3ccc4ccccc4c32)c1 (stereo unspecified) . Output its T/C only.
result: 101 % of control

query: // Input: CN(C)c1c(-c2ccc(Cl)cc2)cc(-c2ccccc2)[nH]c1=O . Output its T/C only.
result: 97 % of control

query: // Input: NC(=S)N/N=C/c1cc(Cl)ccc1O . Output its T/C only.
result: 94 % of control

query: // Input: Oc1ccc(/C=N/Nc2nnc(N/N=C/c3ccc(O)cc3O)c3ccccc23)c(O)c1 . Output its T/C only.
result: 111 % of control

query: // Input: O=C(O)CCCc1ccccc1 . Output its T/C only.
result: 108 % of control

query: // Input: O=c1oc2ccc(Cl)cc2n1CN1CCOCC1 . Output its T/C only.
result: 96 % of control

query: // Input: COc1cc2c(cc1OC)[C@@H]1Cc3ccc(OC)c(OC)c3CN1CC2 . Output its T/C only.
result: 102 % of control

query: // Input: CCCCCCOB(OCCCCCC)OCCCCCC . Output its T/C only.
result: 102 % of control

query: // Input: COc1ccc(/C=C(\C(=O)c2ccc(O)cc2)c2ccccc2)cc1OC . Output its T/C only.
result: 94 % of control

query: // Input: Cc1sc(Cc2ccccc2)nc1-c1ccc(N=Cc2ccc(N(CCCl)CCCl)cc2)cc1 . Output its T/C only.
result: 104 % of control

query: // Input: CCCCCCCCCCOc1ccc(C2=C(c3ccccc3)C(=O)C(c3ccccc3)=C2c2ccccc2)cc1 . Output its T/C only.
result: 100 % of control

query: // Input: CC1(C)CC=CC(COC(=O)c2ccccc2C(=O)O)C1 (stereo unspecified) . Output its T/C only.
result: 102 % of control

query: // Input: O=C(Nc1nccs1)Nc1cc(C(F)(F)F)ccc1Cl . Output its T/C only.
result: 97 % of control

query: // Input: CC/C(=C/C(F)(F)C(F)(F)C(F)(F)F)[N+](=O)[O-] . Output its T/C only.
result: 112 % of control

query: // Input: COC(=O)CC(Br)CBr (stereo unspecified) . Output its T/C only.
result: 100 % of control
